Values compiled from patent US9266840B2.

assay: Pharmacokinetic test (plasma and brain concentration, LC-MS/MS); assay type: in vivo; settings: male, mouse, po; mice, 1 mg/kg orally, an hour after administration, brain homogenate; read-out: concentration in the brain
QUANTITY_NAME: concentration at 1 h (ng/mL)
Could you give me the number in ng/mL? Just the number is fine.

Q: Given CC(C)Oc1ccc(C(=O)N(C2CC2)C2CCc3[nH]ncc3C2)cc1 (single isomer, unassigned; (-)) [Example 8-1] , state its recorded concentration at 1 h.
Ans: 58

* * *

molecular target: recombinant human 11β-HSD1 (Homo sapiens); construct: made in house; test: Human 11β-HSD1 inhibitory activity (HTRF cortisol detection); assay type: biochemical; details: recombinant human 11β-HSD1, 200 nM cortisone, 40 μM NADPH, 1 h room temperature
QUANTITY_NAME: IC50 (µM)
# value in µM; strip the unit string

Q: Reported IC50 for CC(C)Cc1ccc(C(=O)N(C2CC2)C2CCc3[nH]ncc3C2)cc1 (stereo not shown) : what is it?
Ans: 0.04

Q: And the next one, O=C(c1ccc(-c2ccccc2F)o1)N(C1CC1)C1CCc2[nH]ncc2C1 (stereo not shown) ?
Ans: 0.062

Q: Can you check CC(F)(F)CCCn1ncc2c(C(=O)N(C3CC3)C3CCc4[nH]ncc4C3)cccc21 (stereo not shown) next?
Ans: 0.04

Q: Please answer likewise for N#Cc1ccccc1-c1ccc(C(=O)N(C2CC2)C2CCc3[nH]ncc3C2)c(F)c1 (stereo not shown)
Ans: 0.025

* * *

Consider the following molecules; for each one, report its IC50.
target: recombinant human 11β-HSD2 (Homo sapiens, UniProt P80365); experiment: Human 11β-HSD2 inhibitory activity (HTRF); assay type: biochemical; details: recombinant human 11β-HSD2, 200 nM cortisol, 200 μM NAD, 2 h 37° C.
Sequence (P80365 whole entry): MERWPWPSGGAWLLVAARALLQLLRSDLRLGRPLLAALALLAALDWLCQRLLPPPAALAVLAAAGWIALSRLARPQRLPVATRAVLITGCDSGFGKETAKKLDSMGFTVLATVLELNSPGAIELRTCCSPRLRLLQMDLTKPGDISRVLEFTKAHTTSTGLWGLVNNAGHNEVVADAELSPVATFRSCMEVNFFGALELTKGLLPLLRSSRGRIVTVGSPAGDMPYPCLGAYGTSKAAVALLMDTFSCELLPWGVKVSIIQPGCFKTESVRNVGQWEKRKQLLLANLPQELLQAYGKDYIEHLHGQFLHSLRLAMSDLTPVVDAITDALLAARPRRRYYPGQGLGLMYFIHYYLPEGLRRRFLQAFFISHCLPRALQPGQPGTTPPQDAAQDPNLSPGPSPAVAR

Q: What value of measured IC50 is listed for N#Cc1ccccc1-c1ccc(C(=O)N(C2CC2)C2CCc3[nH]ncc3C2)cc1 (centres unmarked) ?
Ans: > 30 µM

Q: Then O=C(c1ccc(-c2ccccc2F)o1)N(C1CC1)C1CCc2[nH]ncc2C1 (centres unmarked) ?
Ans: > 3 µM

Q: Thanks! And N#Cc1cccc(F)c1-c1ccc(C(=O)N(C2CC2)C2CCc3[nH]ncc3C2)cc1 (single isomer, unassigned; (-)) ?
Ans: > 3 µM

Q: Note, next up: CC(F)(F)CCCn1ncc2c(C(=O)N(C3CC3)C3CCc4[nH]ncc4C3)cccc21 (centres unmarked)
Ans: > 30 µM

Q: Here is the next molecule: COc1ccc(C(=O)N(C2CC2)C2CCc3[nH]ncc3C2)c2ccn(C)c12 (centres unmarked)
Ans: > 30 µM

Q: Okay, and Cn1ccc2c(C(=O)N(C3CC3)C3CCc4[nH]ncc4C3)cccc21 (centres unmarked) ?
Ans: > 30 µM

Q: Then what about the molecule CC(C)Oc1ccc(C(=O)N(C2CC2)C2CCc3[nH]ncc3C2)cc1 (single isomer, unassigned; (-)) ?
Ans: > 30 µM

Q: And what about the molecule Cc1cc(C(=O)N(C2CC2)C2CCc3n[nH]cc3C2)c(C)n1Cc1ccc(F)cc1F (centres unmarked) ?
Ans: > 3 µM

* * *

molecular target: recombinant human 11β-HSD1 (Homo sapiens, UniProt P28845); construct: made in house; assay: Human 11β-HSD1 inhibitory activity (HTRF cortisol detection); format: biochemical; settings: recombinant human 11β-HSD1, 200 nM cortisone, 40 μM NADPH, 1 h room temperature
Sequence (P28845 whole entry): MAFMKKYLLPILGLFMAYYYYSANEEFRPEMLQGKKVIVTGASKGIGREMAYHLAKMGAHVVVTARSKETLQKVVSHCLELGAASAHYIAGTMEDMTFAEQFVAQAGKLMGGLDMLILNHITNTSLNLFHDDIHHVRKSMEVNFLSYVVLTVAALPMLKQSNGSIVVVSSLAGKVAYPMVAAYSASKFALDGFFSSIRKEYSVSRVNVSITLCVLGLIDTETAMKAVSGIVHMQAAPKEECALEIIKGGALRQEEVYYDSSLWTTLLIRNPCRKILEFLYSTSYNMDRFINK
Field: IC50. Provide a value for each of the molecules that follow.

Q: So what does the record say about IC50 for Cn1ccc2c(C(=O)N(C3CC3)C3CCc4[nH]ncc4C3)cccc21 (stereo not shown) [Example 81] ?
Ans: 0.024 µM

Q: Please give the result for COc1cc(OC(C)C)ccc1C(=O)N(C1CC1)C1CCc2[nH]ncc2C1 (stereo not shown) [Example 5] too.
Ans: 0.056 µM

Q: Note, next up: COc1ccc(C(=O)N(C2CC2)C2CCc3[nH]ncc3C2)c2ccn(C)c12 (stereo not shown) [Example 132]
Ans: 0.038 µM

Q: Thanks! And N#Cc1ccccc1-c1ccc(C(=O)N(C2CC2)C2CCc3[nH]ncc3C2)cc1 (stereo not shown) [Example 1] ?
Ans: 0.048 µM

Q: Next: N#Cc1cc(F)ccc1-c1ccc(C(=O)N(C2CC2)C2CCc3[nH]ncc3C2)cc1 (stereo not shown) [Example 176]
Ans: 0.088 µM

Q: Next: O=C(c1ccc(-c2c(F)cncc2F)cc1)N(C1CC1)C1CCc2n[nH]cc2C1 (stereo not shown) [Example 228]
Ans: 0.053 µM

Q: Queued: N#Cc1cccc(F)c1-c1ccc(C(=O)N(C2CC2)C2CCc3[nH]ncc3C2)cc1 (single isomer, unassigned; (-)) [Example 7-1]
Ans: 0.018 µM

Q: And what about the molecule O=C(c1ccc(-c2c(F)cccc2F)cc1)N(C1CC1)C1CCc2[nH]ncc2C1 (stereo not shown) [Example 216] ?
Ans: 0.043 µM

Q: Would you kindly repeat that for CC(C)Oc1ccc(C(=O)N(C2CC2)C2CCc3[nH]ncc3C2)cc1 (single isomer, unassigned; (-)) [Example 8-1] ?
Ans: 0.026 µM

Q: Ok, now Cc1cc(C(=O)N(C2CC2)C2CCc3n[nH]cc3C2)c(C)n1Cc1ccc(F)cc1F (stereo not shown) [Example 30]
Ans: 0.028 µM
